- Test system: U2OS
- assay_explanation: Multiplex assay against U2OS
- Format: toxicity, cell-based
- protocol_conditions: human, 12 h, 1 µM, compound concentration 1 uM, replicate 2
quantity_kind: Total Cell Count

{"compound": "COc1ncc(-c2ccc3nccc(-c4ccnnc4)c3c2)cc1NS(=O)(=O)c1ccc(F)cc1F", "assayed_system": "U2OS", "value_observed": 51}
{"compound": "CC(C)(O)CNc1ncc(-c2ccnc(Nc3ccnc(Cl)c3)n2)c(CC2CC2)n1", "assayed_system": "U2OS", "value_observed": 97}
{"compound": "C=CC(=O)Nc1cccc(C(=O)Nc2ccc(Nc3cc(-c4[nH]c(SC)nc4C)ccn3)cc2)c1", "assayed_system": "U2OS", "value_observed": 112}
{"compound": "CN1CCCC(n2nc(Cc3ccc(Cl)cc3)c3ccccc3c2=O)CC1.Cl (configuration not stated) [AZELASTINE HYDROCHLORIDE]", "assayed_system": "U2OS", "value_observed": 51}
{"compound": "Cc1nc(-c2cn3c(n2)-c2ccc(-c4cnn(C(C)(C)C(N)=O)c4)cc2OCC3)n(C(C)C)n1", "assayed_system": "U2OS", "value_observed": 89}
{"compound": "COc1cccc([C@@H](C)NCCCc2ccccc2Cl)c1.Cl [TECALCET HYDROCHLORIDE]", "assayed_system": "U2OS", "value_observed": 70}
{"compound": "CN(C)C(=O)N[C@H]1CC[C@H](CCN2CCN(c3cccc(Cl)c3Cl)CC2)CC1.Cl [CARIPRAZINE HYDROCHLORIDE]", "assayed_system": "U2OS", "value_observed": 61}
{"compound": "Cc1c(-c2ccc(O)cc2)n(Cc2ccc(OCCN3CCCCCC3)cc2)c2ccc(O)cc12", "assayed_system": "U2OS", "value_observed": 48}
{"compound": "CNc1nc(NCc2ccc(NS(C)(=O)=O)cc2Cl)cc(-c2ccccn2)n1", "assayed_system": "U2OS", "value_observed": 61}
{"compound": "NC(=O)Nc1cc(-c2cccc(F)c2)sc1C(=O)N[C@H]1CCCNC1", "assayed_system": "U2OS", "value_observed": 110}
{"compound": "OC1(c2ccc(Cl)cc2)CCN(Cc2c[nH]c3ccccc23)CC1", "assayed_system": "U2OS", "value_observed": 78}
{"compound": "O=C1NCN(c2ccccc2)C12CCN(CCCOc1ccc(F)cc1)CC2 [SPIRAMIDE]", "assayed_system": "U2OS", "value_observed": 74}
{"compound": "Cl.N#Cc1ccc2[nH]cc(CCCCN3CCN(c4ccc5oc(C(N)=O)cc5c4)CC3)c2c1 [VILAZODONE HYDROCHLORIDE]", "assayed_system": "U2OS", "value_observed": 50}
{"compound": "Cc1[nH]c(/C=C2\\C(=O)Nc3ccc(S(=O)(=O)N(C)c4cccc(Cl)c4)cc32)c(C)c1C(=O)N1CCN(C)CC1", "assayed_system": "U2OS", "value_observed": 90}
{"compound": "CC(C)NCC(O)COc1ccc(CCOCC2CC2)cc1.Cl (configuration not stated) [BETAXOLOL HYDROCHLORIDE]", "assayed_system": "U2OS", "value_observed": 55}
{"compound": "Cc1nc(Nc2n[nH]c3c2CN(C(=O)N[C@H](CN(C)C)c2ccccc2)C3(C)C)c2sccc2n1", "assayed_system": "U2OS", "value_observed": 118}
{"compound": "C[C@@H](NCCCc1cccc(C(F)(F)F)c1)c1cccc2ccccc12.Cl [CINACALCET HYDROCHLORIDE]", "assayed_system": "U2OS", "value_observed": 52}
{"compound": "CCN(CC)CCCCNc1ncc2cc(-c3cc(OC)cc(OC)c3)c(NC(=O)NC(C)(C)C)nc2n1", "assayed_system": "U2OS", "value_observed": 186}
{"compound": "Cn1cc(-c2[nH]c3cc(NC(=O)[C@H](N)C4CCCCC4)cc4c3c2C=NNC4=O)cn1", "assayed_system": "U2OS", "value_observed": 51}
{"compound": "COc1cc(-n2cnc3cc(-c4ccc(Cl)cc4)sc3c2=O)ccc1OCCN1CCCC1", "assayed_system": "U2OS", "value_observed": 78}
{"compound": "Cc1cc(C)cc(-c2cnc3cc(Cl)c(-c4cccc(O)c4)cc3c2OCCCN)c1", "assayed_system": "U2OS", "value_observed": 68}
{"compound": "CN(C)C(=O)/C(C#N)=C/c1ccc(-c2nc3cnc4[nH]ccc4c3n2C2CCCCC2)o1", "assayed_system": "U2OS", "value_observed": 75}
{"compound": "CN1CCN(c2ccc(OC(F)(F)F)c(Nc3ncc4c(n3)-c3c(c(C(N)=O)nn3CCO)CC4)c2)CC1", "assayed_system": "U2OS", "value_observed": 66}
{"compound": "CN1CCC[C@@H]1CCO[C@](C)(c1ccccc1)c1ccc(Cl)cc1.O=C(O)/C=C/C(=O)O [CLEMASTINE FUMARATE]", "assayed_system": "U2OS", "value_observed": 78}
{"compound": "CN(C)CC#Cc1ccc(OCCCc2sc(N3CCc4cccc(C(=O)Nc5nc6ccccc6s5)c4C3)nc2C(=O)O)c(F)c1", "assayed_system": "U2OS", "value_observed": 86}
{"compound": "C=CC(=O)Nc1cc2c(Nc3ccc(F)c(Cl)c3)ncnc2cc1OCCCN1CCOCC1.Cl.Cl [CANERTINIB DIHYDROCHLORIDE]", "assayed_system": "U2OS", "value_observed": 88}
{"compound": "Cc1csc2c(N[C@@H](C)CN3CCN(S(=O)(=O)c4ccc(Cl)c(Cl)c4)CC3)ncnc12", "assayed_system": "U2OS", "value_observed": 48}
{"compound": "CC[C@H](C)C(=O)O[C@H]1C[C@@H](C)C=C2C=C[C@H](C)[C@H](CC[C@@H]3C[C@@H](O)CC(=O)O3)[C@H]21", "assayed_system": "U2OS", "value_observed": 87}
{"compound": "C[C@@]1(C(=O)Nc2ccc(F)nc2)CCCN1c1nc(Nc2cc(C3CC3)n[nH]2)c2cccn2n1", "assayed_system": "U2OS", "value_observed": 117}
{"compound": "Cc1nc(-c2ccc(-c3ccc(C(=O)N4CCc5cc6c(cc54)C4(CCN(C)CC4)CO6)cc3)c(C)c2)no1", "assayed_system": "U2OS", "value_observed": 65}
{"compound": "c1cn2cc(-c3ccc4cn[nH]c4c3)nc(Nc3ccc(N4CCOCC4)cc3)c2n1", "assayed_system": "U2OS", "value_observed": 59}
